Data provenance is PubChem BioAssay (NCI).

Listed here are compounds together with their documented growth.
- System: RXF 393 renal
- EXPERIMENTAL_DETAILS: NCI-60 one-dose screen, 48 h (100 = growth as untreated, 0 = no growth, -100 = all killed)
- CONDITIONS: 10 µM unless noted
Compounds without any hit were thinned out: in the full panel of roughly 83,000, 20% have a hit.
Express it in %; write the number only.

Some compounds with known growth results, for comparison:
| COMPOUND | growth (%) |
| --- | --- |
| CCC(C)(C)C(=O)O[C@H]1C[C@@H](C)C=C2C=C[C@H](C)[C@H](CC[C@@H]3CC=CC(=O)O3)[C@H]21 | 41.3 |
| O=C(c1nc2ccccc2[nH]1)C1C(c2ccc(F)cc2)C2CC3CCCCC3N2[C@@]12C(=O)Nc1ccc(Cl)cc12 (some centres undefined) | 9.81 |
| CCOC(=O)C1=C(C)N=c2s/c(=C\c3ccccc3O)c(=O)n2C1c1ccc(OC)c2ccccc12 (centres undefined) | -20.6 |

Would you kindly look at the next entry?
For this compound ( `COc1ccc(C(=O)Nc2ccc3nc(N4CCCCC4)cc(C)c3c2)cc1OC` ), measured growth is 92.3

====

- Test system: HCC-2998 colon
- EXPERIMENTAL_DETAILS: NCI-60 one-dose screen, 48 h (100 = growth as untreated, 0 = no growth, -100 = all killed)
- CONDITIONS: 10 µM unless noted
This is part of a sample that, as a whole, favours compounds with a hit. Of some 83,000 tested, about 20% had one in any assay. The source made the active and inactive calls. How the source made its calls: active means growth percent below 10; inactive means the rest.
ASSAY_METRIC: growth

Entry under test: `CCCCNc1nc(NC(C)(C)C)nc(NC(C)(C)C)n1` . Its growth was 74.3% (inactive)

====

- Tested on: SNB-19 CNS
- EXPERIMENTAL_DETAILS: NCI-60 one-dose screen, 48 h (100 = growth as untreated, 0 = no growth, -100 = all killed)
- CONDITIONS: 10 µM unless noted
About 83,000 compounds went through this panel and 20% of them were active in at least one assay; those are over-represented in the sample as a whole.
Below, each entry is listed with its recorded growth.
// return numeric value only (unit: %, not printed)

Here's what some known entries look like.
| COMPOUND | UNIT_ABBREV | growth |
| --- | --- | --- |
| COc1cccc(/C(C#N)=C/c2nc3c(N4CCOCC4)nc(Cl)nc3n2C)c1 | % | 55.6 |
| CCCCC1CCc2cccc3c(SCC(=O)N(C)c4ccc(Cl)cc4)cc[n+]1c23 (stereo not given) | % | 97.2 |
| COc1cc(C(=O)Nc2ccc(-c3nc4ccccc4[nH]3)cc2)cc(OC)c1OC | % | 53.8 |
| COc1ccc(Cn2c(Br)c3c(c2-c2cc(OC)c(OC)c(OC)c2)CCc2sc(NC(C)=O)nc2-3)cc1 | % | 41 |
| COc1cccc(C2=NN3C(C2)c2ccccc2OC3c2ccc(/C=C3\SC(=O)NC3=O)cc2)c1 (stereo not given) | % | 105 |
| Cc1cc2c(c(C)c1Cl)C(=O)/C(=C/c1ccco1)O2 | % | 95.2 |
| CN(C)CCCNCc1ccc(-c2ccc(F)c(Cl)c2)o1 | % | 73.6 |
| O=C(CCN1C(=O)c2ccccc2C1=O)Nc1ccc(Cl)cc1 | % | 90.3 |

`Nc1nc(Nc2cccc(F)c2)nc2ccccc12` yielded growth of 57.5

Consider `O=NN(Cc1cccnc1)C(=O)NC1CCCCC1` . Its measured growth is 102
